TARGET ENTITY: T1, Csm2;Psy3;Shu1;Shu2 (Saccharomyces cerevisiae?;Saccharomyces …, UniProt P40465;Q12318;P38751;P38957 1-213;1-242;1-150;1-223, |||)
T1 sequence 1: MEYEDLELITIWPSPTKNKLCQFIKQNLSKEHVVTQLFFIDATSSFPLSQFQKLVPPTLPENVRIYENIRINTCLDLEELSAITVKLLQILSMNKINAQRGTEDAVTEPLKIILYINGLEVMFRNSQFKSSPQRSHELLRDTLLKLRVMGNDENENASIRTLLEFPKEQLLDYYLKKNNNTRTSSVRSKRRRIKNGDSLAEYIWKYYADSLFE
T1 sequence 2: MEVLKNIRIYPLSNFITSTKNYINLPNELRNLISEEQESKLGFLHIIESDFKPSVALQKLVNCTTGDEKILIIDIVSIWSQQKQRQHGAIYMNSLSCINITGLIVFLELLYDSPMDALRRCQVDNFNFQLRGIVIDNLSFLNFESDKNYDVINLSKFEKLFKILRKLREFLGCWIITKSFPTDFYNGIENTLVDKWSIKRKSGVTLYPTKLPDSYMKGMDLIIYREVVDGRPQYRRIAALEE
T1 sequence 3: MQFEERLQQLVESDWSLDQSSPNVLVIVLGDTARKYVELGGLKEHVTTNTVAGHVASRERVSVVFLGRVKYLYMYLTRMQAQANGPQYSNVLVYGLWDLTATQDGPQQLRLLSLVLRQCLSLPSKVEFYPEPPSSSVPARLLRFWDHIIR
T1 sequence 4: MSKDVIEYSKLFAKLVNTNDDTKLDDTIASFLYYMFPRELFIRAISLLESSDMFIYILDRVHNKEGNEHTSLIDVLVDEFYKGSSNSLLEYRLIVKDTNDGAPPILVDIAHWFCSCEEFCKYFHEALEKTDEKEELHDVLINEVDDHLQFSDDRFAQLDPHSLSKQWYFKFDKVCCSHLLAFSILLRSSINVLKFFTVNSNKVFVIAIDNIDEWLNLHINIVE
TEST DESCRIPTION: fluorescence polarization
OBSERVABLE: Kd (µM)

• ds39 (dsDNA) DNA 1: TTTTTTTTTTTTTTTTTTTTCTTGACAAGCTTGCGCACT DNA 2: AGTGCGCAAGCTTGTCAAGAAAAAAAAAAAAAAAAAAAA = 7.4

src = paper doi:10.1101/2024.04.22.590616
